Experiment: In vitro cytotoxicity with mouse peritoneal macrophages (Alamar Blue)
Assay type: cell-based
Conditions: peritoneal mouse macrophages; read-out: Cytotox. PMM IC50
observed.property: IC50 at 96 h (µM)
Please give a number only; it is taken to be in µM.

Suppose we examine the compound COc1cc(NC(C)CCCN)c2ncccc2c1 (stereo not shown) [Primaquine] ; what IC50 at 96 h value has been reported?
39.7

----------
Tested on: P. falciparum strain K1
Assay: In vitro activity against P. falciparum, serial drug dilution assay
Conditions: rat, L6 cells versus P. falciparum K1, Selectivity index: IC50 Cytotoxicity L6/ IC50 P. falciparum
observed.property: selectivity ratio
# output: bare number, no unit

Suppose we examine the compound `CN(C)CCCN1c2ccccc2Sc2ccccc21` ; what selectivity ratio value has been reported?
61

----------
Test system: T. b. rhodesiense strain STIB 900, trypomastigotes
Assay: In vitro activity against T. b. rhodesiense, serial drug dilution assay
Conditions: Trypanosoma brucei, read-out: IC50 T. b. rhod.
Structures can show the parent of a compound that is named as a salt.
observed.property: IC50 (µM)
Please give a number only; it is taken to be in µM.

compound	result.units	IC50
OC(Cn1cncn1)(Cn1cncn1)c1ccc(F)cc1F [Fluconazole]	µM	273
Cc1cc(C2CCCCC2)n(O)c(=O)c1 [Ciclopirox olamine]	µM	0.8
CO[C@H]1/C=C/O[C@@]2(C)Oc3c(C)c(O)c4c(O)c(cc(O)c4c3C2=O)NC(=O)/C(C)=C\C=C\[C@H](C)[C@H](O)[C@@H](C)[C@@H](O)[C@@H](C)[C@H](OC(C)=O)[C@@H]1C [Rifamycin SV (Sodium salt), Rifamycin SV]	µM	0.99
CN(C)CCCN1c2ccccc2Sc2ccc(C(F)(F)F)cc21 [Triflupromazine]	µM	1.42
CN1CC(=O)N2[C@H](c3ccc4c(c3)OCO4)c3[nH]c4ccccc4c3C[C@@H]2C1=O [Tadalafil]	µM	97.6
CN1CCN(CCCN2c3ccccc3Sc3ccc(C(F)(F)F)cc32)CC1 [Trifluoperazine]	µM	1.23

Suppose we examine the compound CCCSc1ccc2nc(NC(=O)OC)[nH]c2c1 [Albendazole] ; what IC50 value has been reported?
14.7

Also, CN(C)CCCN1c2ccccc2Sc2ccccc21 [Promazine] please.
2.16

Also, OCCN(CCO)c1nc(N2CCCCC2)c2nc(N(CCO)CCO)nc(N3CCCCC3)c2n1 [Dipyridamole] please.
7.45

----------
Test system: L6 cells
Assay: Cytotoxicity on L6 cells
Conditions: read-out: IC50 Cytotox. L6; L6 cells; means of two independent assays
observed.property: pIC50
In simple prose, pIC50 is minus the logarithm base ten of a concentration in moles per litre.

Suppose we examine the compound `CC(=O)OC[C@H]1O[C@@H]([S-])[C@H](OC(C)=O)[C@@H](OC(C)=O)[C@@H]1OC(C)=O.CCP(CC)CC.[Au+]` ; what pIC50 value has been reported?
5.32

----------
Assay: Cytotoxicity on macrophages infected with L. donovani
Assay type: cell-based, mouse
Conditions: mouse, macrophages infected with L. donovani; read-out: IC50 Cytotox. mac.inf.
observed.property: IC50 at 96 h

Example entries and their recorded answers appear below.
molecule	observed.measurement
c1ccc(-c2ccc(C(c3ccccc3)n3ccnc3)cc2)cc1 (stereo not drawn)	> 32.2 µM
CC[C@H]1OC(=O)[C@H](C)[C@@H](O[C@H]2C[C@@](C)(OC)[C@@H](O)[C@H](C)O2)[C@H](C)[C@@H](O[C@@H]2O[C@H](C)C[C@H](N(C)C)[C@H]2O)[C@](C)(O)C[C@@H](C)C(=O)[C@H](C)[C@@H](O)[C@]1(C)O [Erythromycine (Hydrate), Erythromycine]	> 39.9 µM
CCS(=O)(=O)CCn1c([N+](=O)[O-])cnc1C	> 81 µM
CNCCC=C1c2ccccc2CCc2ccccc21	38 µM
CN(C)CCCN1c2ccccc2CCc2ccc(Cl)cc21	31.8 µM
C[C@H]1[C@H](OC(=O)CCC(=O)O)O[C@@H]2O[C@@]3(C)CC[C@H]4[C@H](C)CC[C@@H]1[C@@]24OO3 [Artesunate]	> 7.8 µM
Cc1c(C)c2c(c(C)c1O)CCC(C)(COc1ccc(CC3SC(=O)NC3=O)cc1)O2 (stereo not drawn)	> 68 µM
CC1CS(=O)(=O)CCN1/N=C/c1ccc([N+](=O)[O-])o1 (stereo not drawn)	34.8 µM

Suppose we examine the molecule `Clc1ccc2c(c1)C(N1CCNCC1)=Nc1ccccc1O2` ; what IC50 at 96 h value has been reported?
31.9 µM

Also, `CC(C)(C)NC(=O)[C@@H]1C[C@@H]2CCCC[C@@H]2CN1C[C@@H](O)[C@H](Cc1ccccc1)NC(=O)[C@H](CC(N)=O)NC(=O)c1ccc2ccccc2n1` please.
> 44.7 µM

Also, `Nc1ccc(S(=O)(=O)c2ccc(N)cc2)cc1` please.
> 121 µM

Also, `CO[C@H]1/C=C/O[C@@]2(C)Oc3c(C)c(O)c4c(O)c(c(/C=N/N5CCN(C)CC5)c(O)c4c3C2=O)NC(=O)/C(C)=C\C=C\[C@H](C)[C@H](O)[C@@H](C)[C@@H](O)[C@@H](C)[C@H](OC(C)=O)[C@@H]1C` please.
> 36.5 µM

Also, Cc1cccc(N(C)C(=S)Oc2ccc3ccccc3c2)c1 [Tolnaftate] please.
> 97.6 µM

Also, `OCCN(CCO)c1nc(N2CCCCC2)c2nc(N(CCO)CCO)nc(N3CCCCC3)c2n1` please.
> 59.5 µM

Also, `O=C(O)c1nn(Cc2ccc(Cl)cc2Cl)c2ccccc12` please.
> 93.4 µM
